Target: CA-IX (Homo sapiens)
Construct: His tag (C); purchased R&D Systems Inc. 2188-CA; host or cells: mouse myeloma cell line NS0
Experiment: CA-IX combinatorial library screening, competitive fluorescence-based assay with dansylamide (DNSA)
Assay type: binding
Conditions: 1 h; Table 2, Libraries 4-7; sample concentrations 100 nM and 1000 nM, DNSA 200 μM; screening at 1 μM; read-out: In Vitro Binding Assay (Library (Screening))
Each item that follows carries a reported inhibition at 1 µM.

Reference set (10 entries):
- compound: "CC(C)[C@@H](C(=O)N1CCN(CCO)CC1)n1cc(-c2ccc(S(N)(=O)=O)cc2)nn1"
  inhibition at 1 µM: "< 40%"
- compound: "CC(C)[C@@H](C(=O)N[C@@H]1c2ccccc2C[C@@H]1O)n1cc(COc2ccc3nc(S(N)(=O)=O)sc3c2)nn1"
  inhibition at 1 µM: "< 40%"
- compound: "Cc1onc(-c2ccccc2)c1CNC(=O)[C@H](C(C)C)n1cc(COc2ccc3nc(S(N)(=O)=O)sc3c2)nn1"
  inhibition at 1 µM: "< 40%"
- compound: "CC(C)[C@@H](C(=O)NC1c2ccccc2C[C@@H]1O)n1cc(-c2ccc(S(N)(=O)=O)cc2)nn1 (some centres unmarked)"
  inhibition at 1 µM: "< 40%"
- compound: "CCOC(=O)[C@@H](NC(=O)[C@H](C(C)C)n1cc(-c2ccc(S(N)(=O)=O)cc2)nn1)C(C)C"
  inhibition at 1 µM: "< 40%"
- compound: "NS(=O)(=O)c1nc2ccc(OCc3cn([C@@H](Cc4ccccc4)C(=O)NCCN4CCN(Cc5ccccc5)CC4)nn3)cc2s1"
  inhibition at 1 µM: "< 40%"
- compound: "Cn1c(CNC(=O)[C@H](Cc2ccccc2)n2cc(-c3ccc(S(N)(=O)=O)cc3)nn2)nc2ccccc21"
  inhibition at 1 µM: "< 40%"
- compound: "CC(C)[C@@H](C(=O)NCCSCc1ccc(CN(C)C)o1)n1cc(COc2ccc3nc(S(N)(=O)=O)sc3c2)nn1"
  inhibition at 1 µM: "< 40%"
- compound: "NS(=O)(=O)c1nc2ccc(OCc3cn([C@@H](Cc4ccccc4)C(=O)NCc4ccc(-c5ccccn5)s4)nn3)cc2s1"
  inhibition at 1 µM: "< 40%"
- compound: "CC(C)[C@@H](C(=O)NCCCO)n1cc(COc2ccc3nc(S(N)(=O)=O)sc3c2)nn1"
  inhibition at 1 µM: "< 40%"

q: Field request: inhibition at 1 µM | item: `NS(=O)(=O)c1ccc(-c2cn([C@@H](Cc3ccccc3)C(=O)N3CCC(CCO)CC3)nn2)cc1`
a: < 40%

q: Field request: inhibition at 1 µM | item: `CC(C)[C@@H](C(=O)N(C)Cc1ccccc1)n1cc(-c2ccc(S(N)(=O)=O)cc2)nn1`
a: < 40%

q: Field request: inhibition at 1 µM | item: `CC(C)[C@@H](C(=O)NCc1ccccn1)n1cc(-c2ccc(S(N)(=O)=O)cc2)nn1`
a: < 40%

q: Field request: inhibition at 1 µM | item: `CC(C)[C@@H](C(=O)N1CCN(c2ncccn2)CC1)n1cc(-c2ccc(S(N)(=O)=O)cc2)nn1`
a: < 40%

q: Field request: inhibition at 1 µM | item: `NS(=O)(=O)c1ccc(-c2cn([C@@H](Cc3ccccc3)C(=O)N3CCC[C@@H]3CO)nn2)cc1`
a: < 40%

q: Field request: inhibition at 1 µM | item: `NS(=O)(=O)c1ccc(-c2cn([C@@H](Cc3ccccc3)C(=O)N3CCN(c4ncccn4)CC3)nn2)cc1`
a: < 40%
